# key: entry, value: TGI
system: SF-539 CNS; assay: NCI tumour cell line growth inhibition, 48 h
ENDPOINT_NAME: TGI

> print(dat)
                                    compound  target.of.assay  endpoint.name  experimental.value
 1               N#Cc1nc(COCCOCc2ccccc2)oc1N       SF-539 CNS            TGI            > 100 µM
 2  COC(=O)[C@]12CCC(C)(C)C[C@H]1C1=CC[C@@H]3[C@@]4(C)C/C(=C/c5cccnc5)C(=O)C(C)(C)[C@@H]4CC[C@@]3(C)[C@]1(C)CC2       SF-539 CNS            TGI             20.7 µM
 3        S=C1Cc2c([nH]c3ccccc23)-c2ccccc2N1       SF-539 CNS            TGI            > 100 µM
 4  CC(C)NC(=O)OCc1c(COC(=O)NC(C)C)c(-c2ccc[n+](COC(=O)CC(C)(C)C)c2)n2c1CCC2       SF-539 CNS            TGI            > 100 µM
 5                          CC1=CC(=O)NCCN1C       SF-539 CNS            TGI            > 100 µM
 6  COC(=O)C(=O)C(C(=O)C=C(C)C)C(=O)C(=O)Nc1ccc(Cl)cc1C (stereo unspecified)       SF-539 CNS            TGI            > 100 µM
 7                   CN(C)CC(CN(C)C)c1ccccn1       SF-539 CNS            TGI            > 100 µM
 8     C/C(=N\NC(=S)N1CC2CCC(CC2)C1)c1ccncn1       SF-539 CNS            TGI             2.02 µM
 9               N#CC1=C(N2CCCC2)NC(=O)CC1=O       SF-539 CNS            TGI            > 100 µM
10          O=C(CCc1ccc(O)cc1)NCCc1ccc(O)cc1       SF-539 CNS            TGI            > 100 µM
11  CC(=O)SCCC1c2[nH]c3ccccc3c2CCN1O (stereo unspecified)       SF-539 CNS            TGI            > 100 µM
